# TARGET_DESC: GST-NbGlk1(82-244) (Nicotiana benthamiana)
# Chain: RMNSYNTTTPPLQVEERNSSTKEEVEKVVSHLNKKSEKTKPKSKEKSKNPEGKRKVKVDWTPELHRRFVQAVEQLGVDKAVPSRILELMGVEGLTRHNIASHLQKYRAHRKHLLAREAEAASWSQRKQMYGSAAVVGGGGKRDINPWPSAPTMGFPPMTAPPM
# MEASUREMENT_DESCRIPTION: protein-binding microarray; NbGlk1 is a Golden2-like transcription factor of Nicotiana benthamiana; high values mean tight binding
# TEST_PARAMETERS: protein: recombinant; tags: GST (pTH6838); dsDNA, one strand shown
In all, about 16,000 sequences were measured (“e-score”: median about -0.044, highest 2% from about 0.38 on). This excerpt belongs to a sample that is enriched for the highest values.
Recorded binding signal by entry
// units = E-score; emit number, no label

construct_sequence=AATCAATA target_desc="GST-NbGlk1(82-244) (Nicotiana benthamiana)" metric="binding signal" reported_result=0.274
construct_sequence=AAATATGG target_desc="GST-NbGlk1(82-244) (Nicotiana benthamiana)" metric="binding signal" reported_result=0.272
construct_sequence=ATTCCCGG target_desc="GST-NbGlk1(82-244) (Nicotiana benthamiana)" metric="binding signal" reported_result=0.283
construct_sequence=ATTACGTC target_desc="GST-NbGlk1(82-244) (Nicotiana benthamiana)" metric="binding signal" reported_result=0.277
construct_sequence=AGTGGATA target_desc="GST-NbGlk1(82-244) (Nicotiana benthamiana)" metric="binding signal" reported_result=0.257
construct_sequence=CAAAGATA target_desc="GST-NbGlk1(82-244) (Nicotiana benthamiana)" metric="binding signal" reported_result=0.225
construct_sequence=ACATGGAT target_desc="GST-NbGlk1(82-244) (Nicotiana benthamiana)" metric="binding signal" reported_result=0.276
construct_sequence=ATCCCGAG target_desc="GST-NbGlk1(82-244) (Nicotiana benthamiana)" metric="binding signal" reported_result=0.211
construct_sequence=ATATCTGA target_desc="GST-NbGlk1(82-244) (Nicotiana benthamiana)" metric="binding signal" reported_result=0.399
construct_sequence=CAGATTAC target_desc="GST-NbGlk1(82-244) (Nicotiana benthamiana)" metric="binding signal" reported_result=0.477

Q: binding signal for ATCGTGCG ?
Ans: 0.234

Q: # get_value(readout='binding signal', item= AGATACGA )
Ans: 0.332

Q: Which binding signal is listed for ACTAAAAT ?
Ans: 0.281

Q: # query: binding signal of entry ATAATCAA
Ans: 0.216

Q: So what does the record say about binding signal for CAAATTAC ?
Ans: 0.275

Q: Return reported binding signal; argument: AGATACGG
Ans: 0.372

Q: Recorded binding signal for ATATCGGG , please?
Ans: 0.343

Q: Would you kindly share the measured binding signal for ACATATCT ?
Ans: 0.344

Q: Recorded binding signal for ATTTATTA , please?
Ans: 0.249

Q: Field request: binding signal | item: AGATTTAT
Ans: 0.261

Q: Quick check: binding signal of ATCTCTGG ?
Ans: 0.205

Q: binding signal lookup needed for ATTGCGAG , thanks.
Ans: 0.24

Q: Could you tell me which binding signal is on file for ATCTCTGA ?
Ans: 0.269

Q: Look up binding signal for this sequence: AATATATG
Ans: 0.252

Q: Please report the recorded binding signal for ACTGCGAT .
Ans: 0.208

Q: Returns the measured binding signal for the input sequence. Input: ATATTTCG
Ans: 0.347

Q: Which binding signal reading was recorded for the sequence AATCAACA ?
Ans: 0.259

Q: Suppose we examine the sequence ATTCCCCA ; what binding signal value has been reported?
Ans: 0.256

Q: // binding signal lookup, key: ATATCAGA
Ans: 0.343

Q: Which measured binding signal value corresponds to AGATATAT ?
Ans: 0.316

Q: I have this sequence here, ACGATCCT , and I need its recorded binding signal.
Ans: 0.272
